ASSAY: tim23-1 mutant yeast growth inhibitors, confirmation, luminescence, single concentration (AID 463218);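 further: temperature-sensitive tim23-1 mutant grown at 25 °C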
CONDITION PARAMETERS: S. cerevisiae tim23-1 growth, BacTiter-Glo luminescence, 24 h; at 20 µM; hits give high values
Among all 4,400 compounds or so, about 3,700 (84%) were called active. So high a share suggests a set chosen from earlier hits. Not all results are given here.
Grouping by measured inhibition is done with the following cut points: lower range: < 50%; middle range: ≥ 50% and < 60%; upper range: ≥ 60%

Please review the following examples before continuing.
* COc1ccc2nc(NC(=O)NC3CCCCC3)sc2c1 | middle range
* COc1cc(/C=C(\C#N)c2nc3ccccc3[nH]2)ccc1O | middle range

# classify by inhibition band: `Cc1cccc(Nc2nc(-c3ccccc3)cs2)n1` lower range

Record `CC(C)(C)c1ccc(Oc2ccc(N)cc2)cc1` — which class? middle range

Determine which band this molecule sits in: `Clc1ccc(Nc2nc(-c3cccs3)cs2)nc1` upper range

Field: class (inhibition) — entry: `Cc1nn(-c2ccccc2)c(Cl)c1/C=C/C(=O)c1ccc(O)cc1` lower range

Into which category would you place `O=C(NCCc1ccc(F)cc1)c1ccc(S(=O)(=O)N2CCCCC2)cc1` ? middle range

Given `CN1C(=O)/C(=N/OC(=O)c2ccccc2Br)c2ccccc21` , name the class its inhibition places it in. lower range

State the class of the molecule shown: `COC(=O)c1c(NC(=O)CSc2nncs2)sc2c1CCCCC2` lower range

State the band of `CCN1/C(=C\c2ccc3ccccc3[n+]2CC)Sc2cc(C)ccc21` upper range

Bin? `O=C(Nc1nc(-c2ccco2)c(-c2ccco2)s1)c1ccco1` upper range
